# procedure_summary: Pharmacokinetics in rat plasma after oral administration of SF-CS and SP-CS extracts (HPLC-MS/MS)
# Format: in vivo, Male Sprague-Dawley rats
# test_settings: male, Sprague-Dawley; rat plasma, oral SF-CS extract (A) 1.9 g kg^-1, n = 10, mean ± SD
# Experimental: All components were measured on an Agilent 1200 HPLC system (Agilent Corporation, Santa Clara, CA, USA) and API 3200 triple quadrupole mass spectrometer (Concord, ON, Canada) in negative ion mode. […] The plasma sample (100 μL), IS (10 μL) and formic acid (10 μL) were mixed and vortexed for 1 min. […] The supernatant was injected into the HPLC-MS/MS and analyzed. […]
Label Fulfilled when AUC(0-inf) is at or above 300 ng·h/mL; anything below gets Not fulfilled.

Answered examples (2):
compound: O=c1c(O[C@@H]2O[C@H](CO)[C@H](O)[C@H](O)[C@H]2O)c(-c2ccc(O)c(O)c2)oc2cc(O)cc(O)c12
label_value: Fulfilled
--
compound: O=c1c(O[C@@H]2O[C@H](CO)[C@@H](O)[C@H](O)[C@H]2O)c(-c2ccc(O)cc2)oc2cc(O)cc(O)c12
label_value: Not fulfilled

Dear colleague, could you confirm whether "O=C(O)/C=C/c1ccc(O)cc1" has AUC(0-inf) at or above 300 ng·h/mL?
Fulfilled

Dear colleague, could you confirm whether "O=C(/C=C/c1ccc(O)c(O)c1)O[C@@H]1C[C@@](O)(C(=O)O)C[C@@H](O)[C@@H]1O" has AUC(0-inf) at or above 300 ng·h/mL?
Fulfilled

Dear colleague, could you confirm whether "O=C(/C=C/c1ccc(O)c(O)c1)O[C@@H]1C[C@](O)(C(=O)O)C[C@@H](O)[C@H]1O" has AUC(0-inf) at or above 300 ng·h/mL?
Fulfilled

---

# maps each entry to its T1/2α
# procedure_summary: Pharmacokinetics in rat plasma after oral administration of SF-CS and SP-CS extracts (HPLC-MS/MS)
# Assay type: in vivo, Male Sprague-Dawley rats
# test_settings: rat plasma, oral SF-CS extract (A) 1.9 g kg^-1, n = 10, mean ± SD
Note: unit h is implicit; provide only the numeric part.

Solved entries:
compound: O=c1c(O[C@@H]2O[C@H](CO)[C@@H](O)[C@H](O)[C@H]2O)c(-c2ccc(O)cc2)oc2cc(O)cc(O)c12
T1/2α (h): 24.6
//
compound: O=C(/C=C/c1ccc(O)c(O)c1)O[C@@H]1C[C@](O)(C(=O)O)C[C@@H](O)[C@H]1O
T1/2α (h): 6.53
//
compound: O=c1c(O[C@@H]2O[C@H](CO)[C@H](O)[C@H](O)[C@H]2O)c(-c2ccc(O)c(O)c2)oc2cc(O)cc(O)c12
T1/2α (h): 11.7

Any idea what its T1/2α is? The compound is "O=C(O)/C=C/c1ccc(O)cc1"
1.32

Any idea what its T1/2α is? The compound is "O=C(/C=C/c1ccc(O)c(O)c1)O[C@@H]1C[C@@](O)(C(=O)O)C[C@@H](O)[C@@H]1O"
7.72

---

# procedure_summary: Pharmacokinetics in rat plasma after oral administration of SF-CS and SP-CS extracts (HPLC-MS/MS)
# Assay type: in vivo, Male Sprague-Dawley rats
# test_settings: rat plasma, oral SF-CS extract (A) 1.9 g kg^-1, n = 10, mean ± SD
quantity: T1/2ka (h)
Note: unit h is implicit; provide only the numeric part.

Solved entries:
compound: O=c1c(O[C@@H]2O[C@H](CO)[C@H](O)[C@H](O)[C@H]2O)c(-c2ccc(O)c(O)c2)oc2cc(O)cc(O)c12
T1/2ka, h: 2.15
//
compound: O=c1c(O[C@@H]2O[C@H](CO)[C@@H](O)[C@H](O)[C@H]2O)c(-c2ccc(O)cc2)oc2cc(O)cc(O)c12
T1/2ka, h: 2.27
//
compound: O=C(/C=C/c1ccc(O)c(O)c1)O[C@@H]1C[C@@](O)(C(=O)O)C[C@@H](O)[C@@H]1O
T1/2ka, h: 1.12
//
compound: O=C(O)/C=C/c1ccc(O)cc1
T1/2ka, h: 0.15

Any idea what its T1/2ka is? The compound is "O=C(/C=C/c1ccc(O)c(O)c1)O[C@@H]1C[C@](O)(C(=O)O)C[C@@H](O)[C@H]1O"
0.63
